Origin of the recorded values: PubChem BioAssay (NCI)

Provide the recorded GI50 for the entries that follow.
# Test system: MDA-MB-468 breast
# RUN DESCRIPTION: NCI tumour cell line growth inhibition, 48 h

Query: Form field: reported GI50 of `O=C(Nc1n[nH]c2cc(-c3ccccc3)ccc12)C1CC1`
Response: 4000 nM

Query: Form field: reported GI50 of `CCOc1ccc(-c2cc(-c3cc(C(C)C)c(O)cc3C)nn2-c2ccc(S(N)(=O)=O)cc2)cc1`
Response: 2390 nM

Query: Form field: reported GI50 of `Cc1ccc(NC(=O)c2cccc(C(C)(C)C#N)c2)cc1Nc1ccc2ncn(C)c(=O)c2c1`
Response: 15800 nM

Query: Form field: reported GI50 of `CC(C)c1ccc(-c2cc(-c3cn[nH]c3-c3ccccn3)ccn2)cc1`
Response: 10500 nM

Query: Form field: reported GI50 of `COc1cc(OC)c(C(=O)/C=C/c2cccc(C(F)(F)F)c2)c(OC)c1`
Response: 755 nM

Query: Form field: reported GI50 of `Cc1cc(C)c(NC(=O)c2sc3nc4c(cc3c2N)C(=O)CCC4)c(C)c1`
Response: 651 nM

Query: Form field: reported GI50 of `CC1=CC(=O)C=CC1=O`
Response: 1570 nM

Query: Form field: reported GI50 of `C/C(=N\Nc1ccc(Cl)cn1)c1ccc2ccccc2n1`
Response: 2880 nM

Query: Form field: reported GI50 of `C=C(C)[C@@H]1CC[C@]2(CO)CC[C@]3(C)[C@H](CC[C@@H]4[C@@]5(C)C=C(C#N)C(=O)C(C)(C)[C@@H]5CC[C@]43C)[C@@H]12`
Response: 1300 nM

Query: Form field: reported GI50 of `COc1ccccc1CNCCCN1C(=O)c2ccc3c4c(ccc(c24)C1=O)C(=O)N(CCCNCCNCCCN)C3=O`
Response: 456 nM

---

# System: MDA-MB-468 breast
# RUN DESCRIPTION: NCI tumour cell line growth inhibition, 48 h
QUANTITY NAME: GI50

Query: Form field: reported GI50 of `COc1cc2ncnc(-n3ncc4cc(NC(=O)Nc5ccccc5)ccc43)c2cc1OC`
Response: 1180 nM

Query: Form field: reported GI50 of `O=S(=O)(c1ccc(NC(=S)NC23CC4CC(CC(C4)C2)C3)cc1)N1CCCCC1`
Response: 2270 nM

Query: Form field: reported GI50 of `NC(=O)c1cc(Cl)ccc1NC(=O)/C=C/c1ccccc1`
Response: 1100 nM

---

# Test system: MDA-MB-468 breast
# RUN DESCRIPTION: NCI tumour cell line growth inhibition, 48 h
Provide the recorded TGI for the entries that follow.
Report the value in µM with no unit label.

Query: What is its TGI for MDA-MB-468 breast? Entry: `COCC[C@H]1CCC/C=C/[C@@H]2C[C@H](O)C[C@H]2[C@H](O)/C=C/C(=O)O1`
Response: 0.0714

Query: What is its TGI for MDA-MB-468 breast? Entry: `COc1ccccc1CNCCCN1C(=O)c2ccc3c4c(ccc(c24)C1=O)C(=O)N(CCCNCCNCCCN)C3=O`
Response: 2.22

Query: What is its TGI for MDA-MB-468 breast? Entry: `CN1CCN(Cc2ccc(NC(=O)c3cncc(C#Cc4cnn5cccnc45)c3)cc2C(F)(F)F)CC1`
Response: 22.8

Query: What is its TGI for MDA-MB-468 breast? Entry: `COc1c(C(=O)/C=C/c2ccccc2)c(O)cc2occc12`
Response: 21.4
